Experiment: qHTS for induction of synthetic lethality in tumor cells producing 2HG: qHTS for the HT-1080-IDH1KD cell line
Conditions: HT-1080 IDH1 knockdown viability, ATP luminescence, 48 h; series mostly up to 46.1 µM
Hit rate of the full screen: of about 360,000 compounds, about 7,500 (2.1%) were called active. About 8% were inconclusive and are not listed. Calls come from the whole dose curve; as a rule, active = well fitted cell-killing curve with a large enough effect; inconclusive = small, poorly fitted or top-dose-only effect, or effect the other way, or another doubt; inactive = no such curve, though single readings can be large or run the other way. The entries come from a sample that favours actives as a whole.
Classes used: 1 (active), -1 (inactive)

[[record]]
molecule = "CCCc1ccc(S(=O)(=O)N2CCN(C(=O)c3cc(C)on3)CC2)cc1"
class_name = -1

[[record]]
molecule = "Cc1nc(N=C(N)N)nc2c(C)cccc12"
class_name = 1

[[record]]
molecule = "CCCc1cc(=O)[nH]c(SCC(=O)OCc2ccccc2)n1"
class_name = -1

[[record]]
molecule = "CCCn1c(N)c(C(=O)CSc2nnc(Cc3cccs3)n2C2CC2)c(=O)[nH]c1=O"
class_name = -1

[[record]]
molecule = "Cc1cc(=O)oc2cc(OCCC[n+]3ccccc3)ccc12"
class_name = -1

[[record]]
molecule = "CCn1c(SCC(=O)N2CCCC2=O)nc2ccccc21"
class_name = -1

[[record]]
molecule = "O=c1[nH]c(N2CCN(Cc3ccc4c(c3)OCO4)CC2)nc2c1CCCC2"
class_name = -1

[[record]]
molecule = "CCc1nc2c(OCc3ccc(F)c(F)c3)cccn2c1N(C)C(=O)c1ccco1"
class_name = -1

[[record]]
molecule = "Cc1cc(C)c2cc(C#N)c(N3CCNCC3)nc2c1"
class_name = -1

[[record]]
molecule = "CCOc1ccccc1N1CCN(C(=O)COc2ccc3c(C)cc(=O)oc3c2)CC1"
class_name = -1

[[record]]
molecule = "CCc1nc2ccc(C(=O)Nc3cc(-c4ccccc4)ccc3OC)cn2c1N(CC)CC(=O)N(C)C"
class_name = -1

[[record]]
molecule = "Cc1cc(=O)oc2cc(OCC3CC(c4ccccc4Cl)=NO3)ccc12 (configuration not stated)"
class_name = 1

[[record]]
molecule = "CCc1nc2c(OCc3ccc(Cl)cc3Cl)cccn2c1N(C)C(=O)C(C)C"
class_name = 1

[[record]]
molecule = "CC(C)c1cc(C(=O)N(C)C2CCCN(Cc3ccccc3F)C2)n(C)n1 (configuration not stated)"
class_name = -1

[[record]]
molecule = "CCCCN(C=O)c1c(CC)nc2c(OCc3ccccc3C(=O)OC)cccn12"
class_name = -1

[[record]]
molecule = "CCCCCc1c(C)nc(N2CCN(Cc3ccc4c(c3)OCO4)CC2)[nH]c1=O"
class_name = -1

[[record]]
molecule = "Cc1nc2ccccc2nc(C)c1=NOCc1ccc(Cl)cc1Cl"
class_name = -1

[[record]]
molecule = "CCCc1cc(=O)[nH]c(SCC(=O)c2c(N)n(CC(C)C)c(=O)n(C)c2=O)n1"
class_name = 1

[[record]]
molecule = "COc1ccc(-n2nc3c(N4CCC(C(=O)NCc5ccccc5)CC4)nnc(C)c3c2C)cc1"
class_name = -1

[[record]]
molecule = "OC[C@@H]1CN(C2CCCC2)C[C@H](n2cnc3c(NC4CCC4)ncnc32)O1"
class_name = -1

[[record]]
molecule = "CCOC(=O)N1CCN(C(=O)C[C@@H]2C[C@@]3(C(=O)OC)CCCCC=C3N(CCC3=CCCCC3)C2=O)CC1"
class_name = -1

[[record]]
molecule = "CCc1ccc(CNC(=O)C2CC(=O)N(CCc3ccc(C)cc3)C2)cc1 (configuration not stated)"
class_name = -1


---

Experiment: qHTS for induction of synthetic lethality in tumor cells producing 2HG: qHTS for the HT-1080-IDH1KD cell line; note: potency is the fitted concentration of half-maximal effect
Settings: HT-1080 IDH1 knockdown viability, ATP luminescence, 48 h; series mostly up to 46.1 µM
In all, about 360,000 compounds went through this assay and about 7,500 (2.1%) were called active. Roughly 8% stayed inconclusive and do not appear here. The list comes from a sample in which actives are over-represented; it also holds close analogues and randomly drawn compounds.
ENDPOINT: Potency

[[record]]
molecule = "COc1ccc(S(=O)(=O)NCCCc2ccccc2)cc1"
endpoint = "Potency"
result = "inactive"

[[record]]
molecule = "CCN(CC)CCn1c2ccc(Cl)cc2c2nc(C)sc21"
endpoint = "Potency"
result = "inactive"

[[record]]
molecule = "Cc1ccc(C(=O)N/C(=C/c2ccc(-c3cccc([N+](=O)[O-])c3)o2)C(=O)NCCCN(C)C)cc1"
endpoint = "Potency"
result = "14.6 µM (active)"

[[record]]
molecule = "COc1ccc(CNC(=O)Cc2ccc(-c3ccccc3)cc2)cc1OC"
endpoint = "Potency"
result = "14.6 µM (active)"

[[record]]
molecule = "C=CCNC(=O)/C(=C\\c1cccc([N+](=O)[O-])c1)NC(=O)c1ccccc1"
endpoint = "Potency"
result = "inactive"

[[record]]
molecule = "COc1ccc(S(=O)(=O)/N=C2\\C=C(NS(=O)(=O)c3ccccc3)C(=O)c3ccccc32)cc1"
endpoint = "Potency"
result = "20.6 µM (active)"

[[record]]
molecule = "COc1ccc(CCNC(=O)Cc2ccc(C)cc2)cc1OC"
endpoint = "Potency"
result = "inactive"

[[record]]
molecule = "CCOC(=O)C1CCCN(C(=O)c2ccc(C)c(F)c2)CC1 (stereo not given)"
endpoint = "Potency"
result = "inactive"

[[record]]
molecule = "Cc1ccc(S(=O)(=O)/N=C2\\C=C(NS(=O)(=O)c3ccc(C)cc3)C(=O)c3ccccc32)cc1"
endpoint = "Potency"
result = "inactive"

[[record]]
molecule = "CN(C)CCNC(=O)/C(=C/c1cccc([N+](=O)[O-])c1)NC(=O)c1ccccc1"
endpoint = "Potency"
result = "inactive"


---

Assay: qHTS for induction of synthetic lethality in tumor cells producing 2HG: qHTS for the HT-1080-IDH1KD cell line
Conditions: HT-1080 IDH1 knockdown viability, ATP luminescence, 48 h; series mostly up to 46.1 µM
In all, about 360,000 compounds went through this assay and about 7,500 (2.1%) were called active. Not shown: some 8% with an inconclusive outcome. Calls follow the shape of the dose curve; as a rule, active = well fitted cell-killing curve with a large enough effect; inconclusive = small, poorly fitted or top-dose-only effect, or effect the other way, or another doubt; inactive = no such curve, though single readings can be large or run the other way. This is one part of a sample in which actives are shown more often than they occur.
Classes used: 1 (active), -1 (inactive)

[[record]]
compound = "CS(=O)(=O)N1CCCCC1c1cc(C(=O)NCc2ccccc2)no1 (stereo not given)"
class_name = -1

[[record]]
compound = "COc1ccc(CCNC(=O)/C(C#N)=C2\\N=C(NC(=O)c3cccs3)c3ccccc32)cc1"
class_name = -1

[[record]]
compound = "Cc1[nH]c2ccccc2c1C(=O)C(=O)NCc1nnnn1-c1cccc(F)c1"
class_name = -1

[[record]]
compound = "O=C(OCc1cn([C@H]2C[C@H](c3ccccc3)N(C(=O)c3cccs3)C[C@@H]2O)nn1)c1ccccc1"
class_name = -1

[[record]]
compound = "COc1ccc2c(CC(=O)N3CCc4cc(OC)c(OC)cc4C3)coc2c1"
class_name = -1

[[record]]
compound = "O=C1CCC(=O)N1CCC(=O)N(C(=O)NC1CCCCC1)C1CCCCC1"
class_name = -1

[[record]]
compound = "CCOC(=O)[C@]12CCC=C1N(Cc1ccccc1)C(=O)[C@H](CC(=O)N1CCCC1)C2"
class_name = -1

[[record]]
compound = "CCc1nc2ccc(C(=O)NC3CCN(Cc4ccccc4)CC3)cn2c1N(C)CCN1CCOCC1"
class_name = -1

[[record]]
compound = "COc1ccc(-c2csc(C(O)c3cccc(Cl)c3)n2)cn1 (stereo not given)"
class_name = -1

[[record]]
compound = "Cc1ccc2nc(/C(C#N)=C\\c3ccc(OC(=O)c4cccs4)cc3)[nH]c2c1"
class_name = 1


---

Assay: qHTS for induction of synthetic lethality in tumor cells producing 2HG: qHTS for the HT-1080-IDH1KD cell line; note: potency is the fitted concentration of half-maximal effect
Settings: HT-1080 IDH1 knockdown viability, ATP luminescence, 48 h; series mostly up to 46.1 µM
Hit rate of the full screen: of about 360,000 compounds, about 7,500 (2.1%) were called active. About 8% were inconclusive and are not listed. The sample holds actives, similar compounds and a random draw of the others, so the mix is not that of the screen.
ENDPOINT: Potency

[[record]]
compound = "CNN/C(N=Cc1ccc([N+](=O)[O-])s1)=N\\S(=O)(=O)c1cc(C)c(Cl)cc1SCc1ccccc1"
endpoint = "Potency"
result = "inactive"

[[record]]
compound = "C[C@H](NC(=O)CC[C@H]1O[C@@H](n2ccc(=O)[nH]c2=O)[C@H](O)[C@@H]1O)c1cccc2ccccc12"
endpoint = "Potency"
result = "inactive"

[[record]]
compound = "O=C(NCCO)c1cccc(-c2cccc3nccn23)c1"
endpoint = "Potency"
result = "inactive"

[[record]]
compound = "Nc1ncnc2c1ncn2[C@@H]1O[C@H](C(=O)N2CCSC2)[C@@H](O)[C@H]1O"
endpoint = "Potency"
result = "inactive"

[[record]]
compound = "O=[N+]([O-])c1ccc(C=Nc2ccc(Cl)cc2Cl)s1"
endpoint = "Potency"
result = "11.2 µM (active)"

[[record]]
compound = "S=C(NCCCc1ccccc1)Nc1ccc(Br)cc1"
endpoint = "Potency"
result = "16.4 µM (active)"

[[record]]
compound = "O=C(Cc1ccc(Br)cc1)NCCc1ccccc1"
endpoint = "Potency"
result = "inactive"

[[record]]
compound = "CC(=O)Nc1cc(-c2cccc(CO)c2)cn2c(-c3cccc(C(F)(F)F)c3)cnc12"
endpoint = "Potency"
result = "inactive"

[[record]]
compound = "Cc1[nH]c2ccccc2c1C(=O)CN1CCCC(C)C1 (configuration not stated)"
endpoint = "Potency"
result = "inactive"

[[record]]
compound = "O=S(=O)(NCCCc1ccccc1)c1ccc(Br)cc1"
endpoint = "Potency"
result = "inactive"

[[record]]
compound = "N#C/C=C(/c1ccc(F)cc1)N1CCOCC1"
endpoint = "Potency"
result = "inactive"

[[record]]
compound = "CN(C)CCNC(=O)c1cccc(-c2cnc3c(NC=O)cc(-c4cccc(C(F)(F)F)c4)cn23)c1"
endpoint = "Potency"
result = "18.4 µM (active)"

[[record]]
compound = "COc1cccc(-c2cc(NC(C)=O)c3ncc(-c4cccc(C(C)=O)c4)n3c2)c1"
endpoint = "Potency"
result = "inactive"

[[record]]
compound = "Cc1cc2c3ccccc3[nH]c(=O)n2n1"
endpoint = "Potency"
result = "inactive"

[[record]]
compound = "CC1CN(C(=O)c2ccc([N+](=O)[O-])s2)CC(C)O1 (configuration not stated)"
endpoint = "Potency"
result = "inactive"

[[record]]
compound = "CC[C@@H]1Cc2cc(O)ccc2C2=C1c1ccc(O)cc1C[C@H]2CC"
endpoint = "Potency"
result = "14.6 µM (active)"

[[record]]
compound = "COc1cccc(-c2cnc3c(NC(C)=O)cc(-c4cc(F)ccc4OC)cn23)c1"
endpoint = "Potency"
result = "9.2 µM (active)"

[[record]]
compound = "Oc1ccc(N=Nc2nccs2)c(O)c1"
endpoint = "Potency"
result = "4.11 µM (active)"

[[record]]
compound = "COc1ccc(C(CNC(=O)CSc2ccccc2)N2CCOCC2)cc1 (configuration not stated)"
endpoint = "Potency"
result = "inactive"

[[record]]
compound = "CN(C)C(=O)c1cccc(-c2cnc3c(NC=O)cc(-c4ccc(C(=O)N5CCOCC5)cc4)cn23)c1"
endpoint = "Potency"
result = "inactive"

[[record]]
compound = "Cc1[nH]c2ccccc2c1C(=O)CSCC(=O)O"
endpoint = "Potency"
result = "inactive"

[[record]]
compound = "Cc1ccc(C(O)c2ncc(-c3ccccc3F)[nH]2)cc1F (configuration not stated)"
endpoint = "Potency"
result = "inactive"

